- Tested on: SUDHL-1 lymphoma cells (NPM-ALK)
- assay notes: Cell Titer Blue viability, SUDHL-1
- Type: cell-based, human
- test settings: read-out: IC50 SUDHL-1, 72h
measured endpoint: IC50 (nM)
Report only the number, with the unit nM understood.

[in] Short answer please: IC50, SUDHL-1 lymphoma cells (NPM-ALK), entry C[C@@H]1CN(C(=O)c2ccc(NC(=O)c3cc(O[C@H](C)c4c(Cl)ccc(F)c4Cl)c(N)nn3)cc2)C[C@H](C)N1
[out] 9

Below: the item to evaluate.
[in] For the record C[C@@H](Oc1cc(C(=O)Nc2ccc(C(=O)N3CCN(C)CC3)cc2)nnc1N)c1c(Cl)ccc(F)c1Cl , what value of IC50 is listed for SUDHL-1 lymphoma cells (NPM-ALK)?
[out] 32
